- Tested on: N-demethylation of DCIT; CYP2D15 (quinidine)
- Assay type: in vitro ADME, Beagle dog
- condition-label: Beagle, dog, liver microsomes, pH 7.4, probe DCIT 100 μM, formation of S-DDCIT
metric: inhibition at 1 h, 100 μM
Form field: result (number plus unit)

I have this molecule here, `C=C[C@H]1C[N@@]2CC[C@H]1C[C@@H]2[C@@H](O)c1ccnc2ccc(OC)cc12` , and I need its recorded inhibition at 1 h, 100 μM. 57.6%
